Test system: AsPC-1 cells
Test: phospho-ERK HTRF assay in AsPC-1 cells, 4 h treatment
Format: cell-based
Conditions: AsPC-1, 4H; Table 1a; read-out: PERK IC50 (AsPC-1, 4H)
ASSAY METRIC: IC50

// query IC50 value for entry Nc1ccc(C(F)(F)F)c(C2Cc3nc(OC[C@@]45CCCN4C[C@H](F)C5)nc(N4CCNCC(=O)C4)c3CO2)c1F (stereo partly shown) [compound 210]
> 10 µM
